The reported measurements were obtained from patent US20120010075A1.

Entries and their melting point

The examples below pair each entry with its known result.
| entrySmiles | attributeMeasured | dataValue |
| --- | --- | --- |
| O=C(N/N=C/c1ccc(Cl)cc1O)c1ccccc1C(F)(F)F | melting point | 197 to 200 °C |
| C/C(=N\NC(=O)c1ccc(C(F)(F)F)cc1)c1cc(C(F)(F)F)ccc1O | melting point | 228 to 234 °C |
| C/C(=N\NC(=O)c1ccccc1)c1ccccc1O | melting point | 185 to 187 °C |
| COc1ccc(/C(C)=N/NC(=O)c2ccc(Br)cc2)c(O)c1OC | melting point | 241 to 245 °C |

Continue with the compound presented below.
State the recorded melting point for this entry: Cc1cc(C)cc(C(=O)N/N=C/c2cc(Cl)cc(Cl)c2O)c1
207 to 209 °C

----------
Tested on: Phytophthora infestans
Type: in vivo, Phytophthora infestans on tomato
Conditions: hydrazone 50 ppm + 50 μM CuCl2.2H2O, applied 24 h before inoculation, assessed 7 days after inoculation, tomato
attributeMeasured: TLB % Control (%)
State the answer as a number, implicitly in %.

| compound | TLB % Control, % |
| --- | --- |
| COc1ccc(O)c(/C(C)=N/NC(=O)c2cccc(C)c2)c1 [Example 263] | 14.0 |
| O=C(N/N=C/c1cc(Cl)ccc1O)c1ccccc1O [Example 177] | 91.0 |
| O=C(N/N=C/c1cc(Cl)cc(Cl)c1O)c1ccccc1Cl [Example 93] | 77.2 |
| Cc1cc(C)cc(C(=O)N/N=C/c2cc([N+](=O)[O-])cc(Br)c2O)c1 [Example 208] | 32.8 |
| C/C(=N\NC(=O)c1cccc(C)c1)c1ccccc1O [Example 38] | 17.0 |

Continue with the compound presented below.
State the recorded TLB % Control for this entry: CC/C(=N\NC(=O)c1ccc(C)cc1C)c1ccccc1O [Example 34]
68.4

----------
Entries and their melting point

| molecule | melting point |
| --- | --- |
| CC/C(=N\NC(=O)c1ccccc1)c1cc(Cl)cc(Cl)c1O [Example 590] | 214 to 215 °C |
| CC/C(=N\NC(=O)c1ccc(C)cc1C)c1ccccc1O [Example 30] | 159 to 160 °C |
| O=C(N/N=C/c1cc(Cl)cc(C(F)(F)F)c1O)c1cccc(F)c1 [Example 378] | 219 to 221 °C |
| C/C(=N\NC(=O)c1ccc(Br)cc1)c1cc(F)cc(F)c1O [Example 580] | 268 to 270 °C |

State the recorded melting point for this entry: O=C(N/N=C/c1cc(Cl)cc(Cl)c1O)c1ccc2ccccc2c1 [Example 92]
215 to 217 °C

State the recorded melting point for this entry: Cc1ccc(C(=O)N/N=C/c2cc(Cl)cc(Cl)c2O)c(Br)c1 [Example 228]
240 to 242 °C

State the recorded melting point for this entry: O=C(N/N=C/c1ccc(Cl)c(Cl)c1O)c1ccc(Cl)cc1 [Example 359]
260 to 262 °C

State the recorded melting point for this entry: Cc1ccc(C(=O)N/N=C/c2cccc(C(F)(F)F)c2O)c(O)c1 [Example 352]
248 to 253 °C

State the recorded melting point for this entry: C/C(=N\NC(=O)c1ccccc1O)c1cccc([N+](=O)[O-])c1O [Example 525]
274 to 283 °C

State the recorded melting point for this entry: C/C(=N\NC(=O)c1cccc(Cl)c1)c1cc(Cl)cc(Cl)c1O [Example 135]
245 to 246 °C

State the recorded melting point for this entry: O=C(N/N=C/c1cccc(C(F)(F)F)c1O)c1ccc(Cl)cc1 [Example 348]
215 to 216 °C

State the recorded melting point for this entry: O=C(N/N=C/c1cc(Br)cc(F)c1O)c1ccc(C(F)(F)F)cc1 [Example 412]
240 to 241 °C

State the recorded melting point for this entry: O=C(N/N=C/c1ccc(Cl)c(Cl)c1O)c1ccccc1 [Example 238]
249 to 252 °C

State the recorded melting point for this entry: O=C(N/N=C/c1c(O)cccc1Cl)c1ccccc1 [Example 236]
247 to 248 °C

State the recorded melting point for this entry: COc1ccc(/C(C)=N/NC(=O)c2ccccc2Br)c(O)c1 [Example 476]
205 to 206 °C

State the recorded melting point for this entry: N#Cc1cc(Br)c(O)c(/C=N/NC(=O)c2ccccc2)c1 [Example 306]
290 to 291 °C

State the recorded melting point for this entry: Cc1ccc(C(=O)N/N=C/c2cccc(Cl)c2O)cc1 [Example 424]
230 to 232 °C

State the recorded melting point for this entry: C/C(=N\NC(=O)c1ccc(Cl)cc1)c1cccc([N+](=O)[O-])c1O [Example 274]
241 to 251 °C
